test_name: Surface energy by inverse gas chromatography (IGC)
Format: physicochemical
conditions_used: 35° C., powder
measured_attribute: γs^D (n = 3) (mJ/m²)
Unit mJ/m² implied. Number only.

q: Please look up its γs^D (n = 3): CCC(=O)OCC(=O)[C@@]1(OC(=O)CC)[C@@H](C)C[C@H]2[C@@H]3CCC4=CC(=O)C=C[C@]4(C)[C@@]3(Cl)[C@@H](O)C[C@@]21C [BDP, Beclomethasone dipropionate]
a: 52.3
